# Target or system: N2.3
# Assay protocol: FP
Where no end group is shown, it is not given here.
Reported endpoint: Kd (nM)

- Binder: "GYQDYEPEA (also: TAMRA fluorophore, position not given here) [TAMRA-labeled α-synuclein peptide]"
  Unit spec: "nM"
  Result number: 11.4
